- measurement.target: hWRN(519-1227)_C-H3CV-GFP-10His (Homo sapiens, UniProt Q14191)
- Sequence (Q14191 519-1227): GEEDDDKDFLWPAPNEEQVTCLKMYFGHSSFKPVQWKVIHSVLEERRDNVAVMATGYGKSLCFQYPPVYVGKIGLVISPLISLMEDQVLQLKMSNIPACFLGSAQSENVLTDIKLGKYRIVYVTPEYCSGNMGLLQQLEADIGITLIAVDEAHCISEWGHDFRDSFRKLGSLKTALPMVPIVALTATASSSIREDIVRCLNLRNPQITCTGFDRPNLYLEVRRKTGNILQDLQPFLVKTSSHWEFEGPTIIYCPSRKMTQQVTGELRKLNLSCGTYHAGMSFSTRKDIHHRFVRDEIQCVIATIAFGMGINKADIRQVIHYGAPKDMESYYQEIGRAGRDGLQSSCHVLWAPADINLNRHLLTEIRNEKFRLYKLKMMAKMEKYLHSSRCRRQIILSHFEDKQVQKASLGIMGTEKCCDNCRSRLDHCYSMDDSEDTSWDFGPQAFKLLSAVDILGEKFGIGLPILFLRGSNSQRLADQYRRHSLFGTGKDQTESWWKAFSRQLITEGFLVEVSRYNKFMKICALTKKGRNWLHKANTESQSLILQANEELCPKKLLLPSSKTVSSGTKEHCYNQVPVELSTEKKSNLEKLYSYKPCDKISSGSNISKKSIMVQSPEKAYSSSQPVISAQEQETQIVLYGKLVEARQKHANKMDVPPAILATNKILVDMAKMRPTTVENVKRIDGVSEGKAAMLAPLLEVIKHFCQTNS
- procedure.summary: Helicase Assay for WRN Inhibition (ATP-dependent, fluorescence based)
- conditions: read-out: WRN Helicase IC50; 30 min preincubation with ATP, 30 min reaction
attribute.measured: IC50 (µM)
Respond numerically; units are µM and should not be typed.

compound CC(C)(C)c1ncc(C(=O)NC/C=C/S(C)(=O)=O)c(O[C@H]2C[C@@H]3C[C@@H]3C2)n1 [Example 145] , IC50 observed: 59

compound CC(C)(C)c1ncc(C(=O)NC/C=C/S(C)(=O)=O)c(O[C@H]2C[C@@H]3C[C@@H]3C2)n1 [Example 159] , IC50 observed: 6.9
